Parameter: growth. Scope: all listed entries.
System: SF-539 CNS
Assay: NCI-60 one-dose screen, 48 h (100 = growth as untreated, 0 = no growth, -100 = all killed)
Conditions: 10 µM
Description: Cells are grown in 96 well plates and exposed to the test compound for 48 hours. Compounds are tested at a single concentration, which is 10^-5 M for most compounds. The reported endpoint is percent growth (GI% or GIPRCNT), where numbers from 0 - 100% represent growth inhibition, and numbers from -100% - 0 represent cell death. For example, a value of 40 represents 60% growth inhibition. A value of 0 means no net growth occurred over the course of the experiment. […]
About 83,000 compounds went through this panel and 20% of them were active in at least one assay; those are over-represented in the sample as a whole. Calls of active or inactive are those of the source. Rule for the calls: active = growth percent below 10; inactive = the rest.

A selection of reference data follows.
[[record]]
compound = "COc1cc2nc3cc([N+](=O)[O-])ccc3c(Cl)c2cc1OC"
observed = "96.4% (inactive)"

[[record]]
compound = "C=CCCCCCCCCCOC(C)=O"
observed = "105% (inactive)"


Problem: # query: growth | item C#C[C@H]1CCCCCC1O (stereo partly specified) | system: SF-539 CNS
Solution: 106% (inactive)

Problem: # query: growth | item COC(=O)c1ccc(C(C)C)cc1 | system: SF-539 CNS
Solution: 102% (inactive)

Problem: # query: growth | item NC(C(=O)O)C(O)c1ccco1 (stereo unspecified) | system: SF-539 CNS
Solution: 110% (inactive)

Problem: # query: growth | item CC(O)COc1ccc(-c2ccccc2)cc1 (stereo unspecified) | system: SF-539 CNS
Solution: 104% (inactive)

Problem: # query: growth | item COc1ccc(-c2cc3c(nn2)-c2ccccc2C3=O)cc1 | system: SF-539 CNS
Solution: 82.1% (inactive)

Hey, just so you know, these numbers are from PubChem BioAssay (NCI).
